# credit: patent US4738979A

Biological target: α2 -adrenergic receptors (Cavia porcellus)
Construct: from tissue; host or cells: isolated guinea pig ileum
Sequence (Q60474 1-464): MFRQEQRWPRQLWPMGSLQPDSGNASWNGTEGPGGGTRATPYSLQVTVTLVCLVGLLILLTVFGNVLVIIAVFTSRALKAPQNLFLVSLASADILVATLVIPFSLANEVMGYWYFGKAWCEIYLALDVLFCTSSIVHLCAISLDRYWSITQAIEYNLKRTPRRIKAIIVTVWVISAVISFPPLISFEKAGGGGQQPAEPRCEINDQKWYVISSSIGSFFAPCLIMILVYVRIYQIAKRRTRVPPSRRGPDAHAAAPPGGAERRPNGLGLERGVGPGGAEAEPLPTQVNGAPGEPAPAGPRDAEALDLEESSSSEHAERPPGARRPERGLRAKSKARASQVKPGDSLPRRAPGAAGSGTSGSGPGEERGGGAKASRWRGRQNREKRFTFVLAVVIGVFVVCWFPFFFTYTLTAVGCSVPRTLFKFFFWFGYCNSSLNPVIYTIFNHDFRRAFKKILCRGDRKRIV
Assay: α2 antagonist and α2 agonist activity in isolated guinea pig ileum (clonidine)
Details: versus clonidine, read-out: α2 Antagonist Activity (pA2) (converted)
Response key: MET means Kb >= 20 nM; NOT MET means Kb < 20 nM.

Request: Item CC(=C(c1ccccc1)c1ccccc1)c1c[nH]cn1 [Compound 2] with Kb of 20 nM or above?
Result: MET

Request: Item CC(c1c[nH]cn1)C(c1ccccc1)c1ccccc1 (stereo not shown) [Compound 4] with Kb of 20 nM or above?
Result: MET

Request: Item Cc1ccc(C(Cc2c[nH]cn2)c2ccccc2)cc1 (stereo not shown) [Compound 21] with Kb of 20 nM or above?
Result: MET

Request: Item c1ccc(C(Cc2c[nH]cn2)c2ccccc2)cc1 [Compound 1, 4(5)-(2,2-diphenylethyl)-imidazole] with Kb of 20 nM or above?
Result: NOT MET

Request: Item Fc1ccc(C(Cc2c[nH]cn2)c2ccccc2)cc1 (stereo not shown) [Compound 14] with Kb of 20 nM or above?
Result: NOT MET

Request: Item Cc1[nH]cnc1CC(c1ccccc1)c1ccccc1 [Compound 7] with Kb of 20 nM or above?
Result: MET

Request: Item Cc1cccc(C(Cc2c[nH]cn2)c2ccccc2)c1 (stereo not shown) [Compound 9] with Kb of 20 nM or above?
Result: NOT MET
